Test: Toxicity liver stage against HepG2, at 10uM
Assay type: cell-based
Design: test concentration 10 uM, cell line HepG2-A16-CD81EGFP
Details: human, HepG2-A16-CD81EGFP cells; read-out: INHIBITION
Metric: cytotoxicity at 10 µM (%)
Lab book: enter the figure in %, no units written.

Looking for the measured cytotoxicity at 10 µM of "CCc1cnc(N2CC[C@H]3[C@@H]2CCC(=O)N3c2ccccc2)nc1" , can you help?
-6.18

Looking for the measured cytotoxicity at 10 µM of "O=C(c1nnn(-c2ccccc2F)c1-c1ccccn1)N1CCSCC1" , can you help?
1.32

Looking for the measured cytotoxicity at 10 µM of CN1CCCC2(CCN(c3cc(C(F)(F)F)nc(N(C)C)n3)C2)C1=O (stereo unspecified) , can you help?
13.1

Looking for the measured cytotoxicity at 10 µM of O=C1CC(NS(=O)(=O)NCc2ccccc2)CN1c1ccccc1Cl (stereo unspecified) , can you help?
-5.68

Looking for the measured cytotoxicity at 10 µM of Cn1ccnc1CN1CCC2(CC1)CC(NC(=O)c1ccccn1)CO2 (stereo unspecified) , can you help?
-2.05

Looking for the measured cytotoxicity at 10 µM of "Cc1nc(CNC2(C(=O)OC(C)(C)C)CCCC2)oc1C" , can you help?
-0.457

Looking for the measured cytotoxicity at 10 µM of CSCC(=O)N1CCC2(CC1)c1ccccc1CC2O (stereo unspecified) , can you help?
-19.8
